ASSAY REMARKS: Tissue distribution of [125I]- labelled compound in mice striatum in 0.5 hours
Assay type: functional, tissue-based
MEASURE: Dose/g (%)
// return numeric value only (unit: %, not printed)

Data request: Sample `O[C@@H]1Cc2ccccc2C[C@H]1N1CCC(c2ccc(I)cc2)CC1` — what was its Dose/g?
Data returned: 2.68

Data request: Sample `O[C@@H]1Cc2cccc(I)c2C[C@H]1N1CCC(c2ccccc2)CC1` — what was its Dose/g?
Data returned: 3.81

Data request: Sample `O[C@@H]1Cc2cc(I)ccc2C[C@H]1N1CCC(c2ccccc2)CC1` — what was its Dose/g?
Data returned: 2.34

Data request: Sample `O[C@@H]1Cc2c(I)cccc2C[C@H]1N1CCC(c2ccccc2)CC1` — what was its Dose/g?
Data returned: 1.64

Data request: Sample `O[C@@H]1Cc2ccc(I)cc2C[C@H]1N1CCC(c2ccccc2)CC1` — what was its Dose/g?
Data returned: 3.9

###

ASSAY REMARKS: Tissue distribution of [125I]- labelled compound in mice blood in 4 hours
Assay type: functional, tissue-based
MEASURE: Dose/g (%)
// return numeric value only (unit: %, not printed)

Data request: Sample `O[C@@H]1Cc2ccccc2C[C@H]1N1CCC(c2ccc(I)cc2)CC1` — what was its Dose/g?
Data returned: 0.66

Data request: Sample `O[C@@H]1Cc2c(I)cccc2C[C@H]1N1CCC(c2ccccc2)CC1` — what was its Dose/g?
Data returned: 0.19

Data request: Sample `O[C@@H]1Cc2ccc(I)cc2C[C@H]1N1CCC(c2ccccc2)CC1` — what was its Dose/g?
Data returned: 0.51

Data request: Sample `O[C@@H]1Cc2cccc(I)c2C[C@H]1N1CCC(c2ccccc2)CC1` — what was its Dose/g?
Data returned: 0.53

Data request: Sample `O[C@@H]1Cc2cc(I)ccc2C[C@H]1N1CCC(c2ccccc2)CC1` — what was its Dose/g?
Data returned: 0.47
